- measurement conditions: in acetonitrile, 293.15 K
value kind: solubility (mole fraction)
Lab note: write the figure by itself, no unit.

query: Field request: solubility (mole fraction) | item: O=C(O)c1cc([N+](=O)[O-])cc([N+](=O)[O-])c1
result: 0.011

---

- measurement conditions: in n-pentanol, 283.15 K
value kind: solubility (mole fraction)
Lab note: write the figure by itself, no unit.

query: Field request: solubility (mole fraction) | item: O=C(O)c1cc([N+](=O)[O-])cc([N+](=O)[O-])c1
result: 0.0153

---

- measurement conditions: in n-pentanol, 288.15 K
value kind: solubility (mole fraction)
Lab note: write the figure by itself, no unit.

query: Field request: solubility (mole fraction) | item: O=C(O)c1cc([N+](=O)[O-])cc([N+](=O)[O-])c1
result: 0.0173

---

- measurement conditions: in n-butyl acetate, 283.15 K
value kind: solubility (mole fraction)
Lab note: write the figure by itself, no unit.

query: Field request: solubility (mole fraction) | item: O=C(O)c1cc([N+](=O)[O-])cc([N+](=O)[O-])c1
result: 0.0257

---

- measurement conditions: in ethanol, 283.15 K
value kind: solubility (mole fraction)
Lab note: write the figure by itself, no unit.

query: Field request: solubility (mole fraction) | item: O=C(O)c1cc([N+](=O)[O-])cc([N+](=O)[O-])c1
result: 0.0264

---

- measurement conditions: in isobutanol, 303.15 K
value kind: solubility (mole fraction)
Lab note: write the figure by itself, no unit.

query: Field request: solubility (mole fraction) | item: O=C(O)c1cc([N+](=O)[O-])cc([N+](=O)[O-])c1
result: 0.0223

---

- measurement conditions: in n-pentanol, 323.15 K
value kind: solubility (mole fraction)
Lab note: write the figure by itself, no unit.

query: Field request: solubility (mole fraction) | item: O=C(O)c1cc([N+](=O)[O-])cc([N+](=O)[O-])c1
result: 0.0604

---

- measurement conditions: in n-butyl acetate, 293.15 K
value kind: solubility (mole fraction)
Lab note: write the figure by itself, no unit.

query: Field request: solubility (mole fraction) | item: O=C(O)c1cc([N+](=O)[O-])cc([N+](=O)[O-])c1
result: 0.0281

---

- measurement conditions: in acetonitrile, 313.15 K
value kind: solubility (mole fraction)

query: Field request: solubility (mole fraction) | item: O=C(O)c1cc([N+](=O)[O-])cc([N+](=O)[O-])c1
result: 0.019

---

- measurement conditions: in n-propyl acetate, 308.15 K
value kind: solubility (mole fraction)
Lab note: write the figure by itself, no unit.

query: Field request: solubility (mole fraction) | item: O=C(O)c1cc([N+](=O)[O-])cc([N+](=O)[O-])c1
result: 0.0443

---

- measurement conditions: in n-butyl acetate, 318.15 K
value kind: solubility (mole fraction)
Lab note: write the figure by itself, no unit.

query: Field request: solubility (mole fraction) | item: O=C(O)c1cc([N+](=O)[O-])cc([N+](=O)[O-])c1
result: 0.0504

---

- measurement conditions: in methanol, 323.15 K
value kind: solubility (mole fraction)

query: Field request: solubility (mole fraction) | item: O=C(O)c1cc([N+](=O)[O-])cc([N+](=O)[O-])c1
result: 0.0943
